Target: BaF3-Tel-IGF1-R (Homo sapiens, UniProt P08069)
Construct: the kinase domain of IGF-1R (aa 976-1367) linked by a Ser-Arg-linker; expressed in transfected cells; host or cells: BaF3 murine proB-cell lymphoma cells, stably transduced
Sequence (P08069 976-1367): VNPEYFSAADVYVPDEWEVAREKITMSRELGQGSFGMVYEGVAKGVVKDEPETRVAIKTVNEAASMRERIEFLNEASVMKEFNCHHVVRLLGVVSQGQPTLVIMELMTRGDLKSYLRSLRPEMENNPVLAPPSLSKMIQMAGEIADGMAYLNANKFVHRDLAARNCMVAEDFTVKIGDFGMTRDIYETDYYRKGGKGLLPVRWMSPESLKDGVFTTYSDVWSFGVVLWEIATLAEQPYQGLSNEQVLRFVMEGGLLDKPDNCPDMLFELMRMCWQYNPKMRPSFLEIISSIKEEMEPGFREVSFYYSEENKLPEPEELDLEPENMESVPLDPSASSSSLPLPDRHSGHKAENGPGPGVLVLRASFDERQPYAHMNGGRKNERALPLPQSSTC
Test: BaF3 cell viability assay (resazurin), 384-well format
Format: cell-based
Details: 384-well plate format; 48 h incubation; resazurin dye reduction; cell proliferation/viability
pIC50: −log10 of the molar value.
readout name: pIC50

cpd smiles	readout name	operator	readout value
CC(=O)Nc1ccc(C)cc1N1CCC(n2c(=N)n(Cc3cccc4[nH]ccc34)c3ccccc32)CC1	pIC50	>	8.35
CC(=O)Nc1ccc(C#N)cc1N1CCC(n2c(=N)n(Cc3ccccc3Cl)c3ccccc32)CC1	pIC50	=	7.09
CC(=O)Nc1ccc(Cl)cc1N1CCC(n2c(=N)n(Cc3cccc4[nH]nnc34)c3ccc(F)cc32)CC1	pIC50	=	7.66
CC(=O)Nc1ccccc1N1CCC(n2c(=N)n(Cc3ccccc3Cl)c3ccc(F)cc32)CC1	pIC50	=	6.92
CC(=O)Nc1ccc(C(F)(F)F)cc1N1CCC(n2c(=N)n(Cc3ccccc3Cl)c3ccccc32)CC1	pIC50	=	7.16
CC(=O)Nc1ccccc1N1CCC(n2c(=N)n(Cc3ccccc3Cl)c3ccccc32)CC1	pIC50	=	6.83
CC(=O)Nc1ccc(C(F)(F)F)cc1N1CCC(n2c(=N)n(Cc3cccc4[nH]ccc34)c3ccccc32)CC1	pIC50	=	7.28

* * *

Target: BaF3-Tel-IGF1-R (Homo sapiens, UniProt P08069)
Construct: the kinase domain of IGF-1R (aa 976-1367) linked by a Ser-Arg-linker; expressed in transfected cells; host or cells: BaF3 murine proB-cell lymphoma cells, stably transduced
Assay: BaF3 cell viability assay (resazurin/AlamarBlue), 96-well format
Assay type: cell-based
Conditions: 96-well plate format; 48 h incubation; resazurin dye reduction; cell proliferation/viability
pIC50: −log10 of the molar value.

cpd smiles	pIC50
CC(=O)Nc1ccccc1N1CCC(n2c(=N)n(Cc3ccccc3Cl)c3ccccc32)CC1	7.03
Cc1cccc(N2CCC(n3c(=N)n(Cc4cc(F)ccc4Cl)c4ccccc43)CC2)c1	6.54
Cc1cccc(N2CCC(n3c(=N)n(Cc4ccccc4Cl)c4ccccc43)CC2)c1	6.39

* * *

Items are presented alongside their recorded log10 of IC50.
Biological target: BaF3-Tel-IGF1-R (Homo sapiens)
Construct: the kinase domain of IGF-1R (aa 976-1367) linked by a Ser-Arg-linker; expressed in transfected cells; host or cells: BaF3 murine proB-cell lymphoma cells, stably transduced
Test: BaF3 cell viability assay (resazurin), 384-well format
Assay type: cell-based
Conditions: 384-well plate format; 48 h incubation; resazurin dye reduction; cell proliferation/viability
Experimental: […] To achieve a higher throughput, the cell viability assay can also be performed in a 384-well format. […] In addition, a plate blank value is routinely determined in a well containing only 60 μl of medium and no cells. Dose-response effects are determined by 3-fold serial compound dilutions, starting at 10 μM. […] IC50 values can be determined by four parameter logistic fitting as described above.
readout name: log10 of IC50 (log10 of the value in nM)

compound	log10 of IC50
CC(=O)Nc1ccc(Cl)cc1N1CC[C@H](n2c(=N)n(Cc3cccc4[nH]nnc34)c3ccc(F)cc32)[C@@H](O)C1 (racemic)	2.71
CC(=O)Nc1ccc(C)nc1N1CC[C@H](n2c(=N)n(Cc3ccccc3Cl)c3ccc(F)cc32)[C@@H](O)C1 (racemic)	1.79
CC(=O)Nc1ccc(C#N)cc1N1CCC(n2c(=N)n(Cc3cccc4[nH]ccc34)c3ccc(F)cc32)CC1	1.20
CC(=O)Nc1ccc(Cl)cc1N1CCC(n2c(=N)n(Cc3cccc4[nH]nnc34)c3ccccc32)CC1	1.81
CC(=O)Nc1ccc(Cl)cc1N1CC[C@H](n2c(=N)n(Cc3cccc4[nH]ccc34)c3ccccc32)[C@@H](O)C1 (racemic)	1.48
CC(=O)Nc1ccc(Cl)cc1N1CCC(n2c(=N)n(Cc3ccccc3Cl)c3ccc(F)cc32)CC1	1.56
CC(=O)Nc1ccc(C)cc1N1CCC(n2c(=N)n(Cc3ccccc3Cl)c3ccccc32)CC1	1.71

* * *

Items are presented alongside their recorded IC50.
Target: BaF3-Tel-IGF1-R (Homo sapiens)
Construct: the kinase domain of IGF-1R (aa 976-1367) linked by a Ser-Arg-linker; expressed in transfected cells; host or cells: BaF3 murine proB-cell lymphoma cells, stably transduced
Experiment: BaF3 cell viability assay (resazurin), 384-well format
Type: cell-based
Conditions: 384-well plate format; 48 h incubation; resazurin dye reduction; cell proliferation/viability
readout name: IC50 (nM)

compound	readout value
CC(=O)Nc1ccc(C)nc1N1CCC(n2c(=N)n(Cc3cccc4[nH]ccc34)c3ccc(F)cc32)CC1 [Example 65]	5
CC(=O)Nc1ccc(Cl)cc1N1CCC(n2c(=N)n(Cc3cccc4[nH]cnc34)c3ccc(F)cc32)CC1 [Example 64]	163
CC(=O)Nc1ccccc1N1CCC(n2c(=N)n(Cc3cccc4[nH]ccc34)c3ccc(F)cc32)CC1 [Example 56.19]	382
CC(=O)Nc1ccc(Cl)cc1N1CC[C@H](n2c(=N)n(Cc3cccc4[nH]ccc34)c3ccc(F)cc32)[C@@H](O)C1 (racemic) [Example 67]	23
CC(=O)Nc1ccc(Cl)cc1N1CCC(n2c(=N)n(Cc3ccccc3Cl)c3ccccc32)CC1 [Example 58]	37
COc1ccc(NC(C)=O)c(N2CCC(n3c(=N)n(Cc4cccc5[nH]ccc45)c4ccccc43)CC2)c1 [Example 56.1]	35
CC(=O)Nc1ccc(Cl)cc1N1CC[C@H](n2c(=N)n(Cc3ccccc3Cl)c3ccc(F)cc32)[C@@H](O)C1 (racemic) [Example 67.1]	10
CC(=O)Nc1ccc(C)nc1N1CCC(n2c(=N)n(Cc3ccccc3Cl)c3ccc(F)cc32)CC1 [Example 78]	62
CC(=O)Nc1ccc(C(F)(F)F)cc1N1CCC(n2c(=N)n(Cc3ccccc3Cl)c3ccc(F)cc32)CC1 [Example 56.17]	38
CC(=O)Nc1ccc(Cl)cc1N1CCC(n2c(=N)n(Cc3cccc4[nH]ccc34)c3ccc(F)cc32)CC1 [Example 61]	8
CC(=O)Nc1ccc(C(F)(F)F)cc1N1CCC(n2c(=N)n(Cc3cccc4[nH]ccc34)c3ccc(F)cc32)CC1 [Example 56.16]	39
CC(=O)Nc1ccc(Cl)cc1N1CC[C@H](n2c(=N)n(Cc3cccc4[nH]cnc34)c3ccc(F)cc32)[C@@H](O)C1 (racemic) [Example 67.7]	644

* * *

Target: BaF3-Tel-IGF1-R (Homo sapiens, UniProt P08069)
Construct: the kinase domain of IGF-1R (aa 976-1367) linked by a Ser-Arg-linker; expressed in transfected cells; host or cells: BaF3 murine proB-cell lymphoma cells, stably transduced
Test: BaF3 cell viability assay (resazurin), 384-well format
Format: cell-based
Conditions: 384-well plate format; 48 h incubation; resazurin dye reduction; cell proliferation/viability
Procedure: […] To achieve a higher throughput, the cell viability assay can also be performed in a 384-well format. […] In addition, a plate blank value is routinely determined in a well containing only 60 μl of medium and no cells. Dose-response effects are determined by 3-fold serial compound dilutions, starting at 10 μM. […] IC50 values can be determined by four parameter logistic fitting as described above.
Entries whose IC50 is below 200 nM take rule met; entries at or above 200 nM take rule not met.

compound	test target	group label
CC(=O)Nc1ccc(C)nc1N1CC[C@H](n2c(=N)n(Cc3cccc4[nH]ccc34)c3ccc(F)cc32)[C@@H](O)C1 (racemic) [Example 67.3]	BaF3-Tel-IGF1-R (Homo sapiens, UniProt P08069)	rule met
CC(=O)Nc1ccc(C(F)(F)F)cc1N1CCC(n2c(=N)n(Cc3cccc4[nH]nnc34)c3ccc(F)cc32)CC1 [Example 56.14]	BaF3-Tel-IGF1-R (Homo sapiens, UniProt P08069)	rule met
CC(=O)Nc1ccc(C#N)cc1N1CCC(n2c(=N)n(Cc3cccc4[nH]ccc34)c3ccccc32)CC1 [Example 56.4]	BaF3-Tel-IGF1-R (Homo sapiens, UniProt P08069)	rule met
COc1ccc(NC(C)=O)c(N2CCC(n3c(=N)n(Cc4ccccc4Cl)c4ccccc43)CC2)c1 [Example 56.10]	BaF3-Tel-IGF1-R (Homo sapiens, UniProt P08069)	rule met
CC(=O)Nc1ccccc1N1CCC(n2c(=N)n(Cc3cccc4[nH]ccc34)c3ccccc32)CC1 [Example 56.2]	BaF3-Tel-IGF1-R (Homo sapiens, UniProt P08069)	rule met
CC(=O)Nc1ccc(C)cc1N1CCC(n2c(=N)n(Cc3ccccc3Cl)c3ccc(F)cc32)CC1 [Example 56.12]	BaF3-Tel-IGF1-R (Homo sapiens, UniProt P08069)	rule met
CC(=O)Nc1ccc(C)nc1N1CC[C@H](n2c(=N)n(Cc3cccc4[nH]ccc34)c3ccccc32)[C@@H](O)C1 (racemic) [Example 67.4]	BaF3-Tel-IGF1-R (Homo sapiens, UniProt P08069)	rule not met
CC(=O)/N=c1\n(Cc2ccccc2Cl)c2ccccc2n1C1CCN(c2cc(Cl)ccc2NC(C)=O)CC1 [Example 59]	BaF3-Tel-IGF1-R (Homo sapiens, UniProt P08069)	rule not met
CC(=O)/N=c1\n(Cc2cccc3[nH]ccc23)c2ccccc2n1C1CCN(c2cc(C)ccc2NC(C)=O)CC1 [Example 66]	BaF3-Tel-IGF1-R (Homo sapiens, UniProt P08069)	rule met
CC(=O)Nc1ccc(Cl)nc1N1CCC(n2c(=N)n(Cc3ccccc3Cl)c3ccc(F)cc32)CC1 [Example 77]	BaF3-Tel-IGF1-R (Homo sapiens, UniProt P08069)	rule met
COc1ccc(NC(C)=O)c(N2CCC(n3c(=N)n(Cc4cccc5[nH]ccc45)c4ccc(F)cc43)CC2)c1 [Example 56.13]	BaF3-Tel-IGF1-R (Homo sapiens, UniProt P08069)	rule met
CC(=O)Nc1ccc(C)cc1N1CCC(n2c(=N)n(Cc3cccc4[nH]ccc34)c3ccc(F)cc32)CC1 [Example 56.15]	BaF3-Tel-IGF1-R (Homo sapiens, UniProt P08069)	rule met
CC(=O)Nc1ccc(C(F)(F)F)cc1N1CCC(n2c(=N)n(Cc3cccc4[nH]nnc34)c3ccccc32)CC1 [Example 56.8]	BaF3-Tel-IGF1-R (Homo sapiens, UniProt P08069)	rule not met
CC(=O)Nc1ccc(Cl)cc1N1CCC(n2c(=N)n(Cc3cccc4[nH]ccc34)c3ccccc32)CC1 [Example 57]	BaF3-Tel-IGF1-R (Homo sapiens, UniProt P08069)	rule met
